System: Plasmodium falciparum strain W2 (chloroquine-resistant, mefloquine-sensitive)
PROTOCOL_DESCRIPTION: In vitro drug sensitivity assay (3H-hypoxanthine incorporation), strain W2
Format: cell-based
TEST_CONTEXT: Plasmodium falciparum, W2, read-out: IC50 (uM), W2
METRIC_NAME: IC50 (µM)
Please reply with the bare figure in µM and do not write the unit itself.

- COMPOUND: "N=C(N)c1ccc(OCCCCCOc2ccc(C(=N)N)cc2)cc1 [Example 4, reference compound]"
  IC50 [µM]: 0.083

# next compound below
Which IC50 value belongs to "N=C(N)c1ccc(OCCCCCOc2ccc(C(=N)N)cc2[N+](=O)[O-])c([N+](=O)[O-])c1" ?
0.069
